Reference for the values: paper PMC9037180

Test system: S. aureus ATCC 6538
Experiment: Minimal inhibitory concentration (MIC), broth dilution
Details: Staphylococcus aureus, ATCC6538
Entries and their log10(MIC)
// do not treat as linear: log10 of MIC, unit µM

Compound	Measurement Type	Quantitative Readout
CO/N=C(\C(=O)N[C@@H]1C(=O)N2C(C(=O)O)=C(CSc3nc(=O)c(=O)[nH]n3C)CS[C@H]12)c1csc(N)n1 [ceftriaxone, reference compound]	log10(MIC)	0.55
CCOc1ccc(C=NNC(=O)c2ccc(OC)c(OC)c2)cc1	log10(MIC)	1.98
COc1ccc(C(=O)NN=Cc2ccc(N)cc2)cc1OC	log10(MIC)	1.42
COc1ccc(C(=O)NN=Cc2c(C)cc(C)cc2C)cc1OC	log10(MIC)	1.68
COc1ccc(C(=O)NN=Cc2cc(Cl)cc(Cl)c2O)cc1OC	log10(MIC)	2.23
COc1ccc(C(=O)NN=Cc2cc(C(C)(C)C)cc(C(C)(C)C)c2O)cc1OC	log10(MIC)	2.18
COc1ccc(C(=O)NN=Cc2ccc3ccccc3n2)cc1OC	log10(MIC)	1.67
COc1ccc(C(=O)NN=Cc2cc(Br)cc(Br)c2O)cc1OC	log10(MIC)	1.53
CCCCCCCCCCCCOc1ccc(C=NNC(=O)c2ccc(OC)c(OC)c2)cc1	log10(MIC)	1.82

Now, please, on to the next compound.
Short answer for "COc1ccc(C(=O)NN=Cc2ccc(NC(C)=O)cc2)cc1OC" : log10(MIC) was 1.66
